molecular target: thrombin (human alpha thrombin) (human, UniProt P00734;P00734 P00734:328-363,P00734:364-622); experiment: inhibition; fluorogenic peptidyl substrate; >99% max inhibition; 2 mM CaCl2, pH 7.5, 28 C
pIC50: −log10 of the molar value.
Readout label: pIC50

| Binder | Recorded result |
| --- | --- |
| AAAAAAAAGTCCGTGGTAGGGCAGGTTGGGGTGACT (ssDNA, 5' dabigatran-C6 amide; 5' A(7) dA linker) [HD22-7A-DAB] | 10.00 |
